- ASSAYED TARGET: T1, human HIF-1α PAS-B (238-349), recombinant, His-tagged (human, UniProt Q16665 238-349, labelled with Monolith NT-647 dye for MST)
- T1 construct: range 238-349; Expressed in E. coli BL21(DE3)-Rosetta from pET28a; also called HIF-1α PAS-B domain; PAS-B domain of HIF-1α; not shown: His tag from pET28a vector (BamHI/SacI cloning)
- T1 sequence (Q16665 238-349): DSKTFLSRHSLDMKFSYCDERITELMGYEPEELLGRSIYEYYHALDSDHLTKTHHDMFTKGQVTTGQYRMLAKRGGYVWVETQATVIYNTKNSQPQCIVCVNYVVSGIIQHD
- TEST DESCRIPTION: MST, HIF-1α PAS-B; bar chart of Kd (µM) for residues at position 1 of CRLIIF
pKd: −log10 of the molar value. Numbered stars: 1 amine (or outer) side, 2 acyl side, 3 side chain; on linkers, the order of the positions; unused ones are H or OH. Square brackets hold non-standard residues; d marks the D form. Cys(Me) = S-methylcysteine, cys(Me), CSC[C@H](N[*:1])C(=O)[*:2]; Pen = CC(C)(S)[C@H](N)C(=O)O; hCys = N[C@@H](CCS)C(=O)O

{"BINDER": "cyclo([Cys(Me)]RLIIF) (SMILES CC[C@H](C)[C@@H]1NC(=O)[C@H](CC(C)C)NC(=O)[C@H](CCCNC(=N)N)NC(=O)[C@H](CSC)NC(=O)[C@H](Cc2ccccc2)NC(=O)[C@H]([C@@H](C)CC)NC1=O, Bar 'C(Me)' in the chart of C1 substitutions of CRLIIF; Comparative peptide; also called Cyclo-C(Me)RLIIF; cyclo-(methyl)cys arg leu ile ile phe) [C(Me)]", "pKd": 4.21}
{"BINDER": "cyclo([Pen]RLIIF) (SMILES CC[C@H](C)[C@@H]1NC(=O)[C@H](CC(C)C)NC(=O)[C@H](CCCNC(=N)N)NC(=O)[C@H](C(C)(C)S)NC(=O)[C@H](Cc2ccccc2)NC(=O)[C@H]([C@@H](C)CC)NC1=O, also called Cyclo-PenRLIIF; cyclic peptide #12d) [cyclo-Pen arg leu ile ile phe]", "pKd": 5.05}
{"BINDER": "CRLIIF (head-to-tail cyclic (cyclo-), also called CRLIIF; cyclic peptide #4) [cyclo-cys arg leu ile ile phe]", "pKd": 5.41}
{"BINDER": "MRLIIF (head-to-tail cyclised, Bar 'M' in the chart of C1 substitutions of CRLIIF; Comparative peptide; also called Cyclo-MRLIIF; cyclo-met arg leu ile ile phe) [M]", "pKd": 3.97}
{"BINDER": "cyclo([hCys]RLIIF) (SMILES CC[C@H](C)[C@@H]1NC(=O)[C@H](CC(C)C)NC(=O)[C@H](CCCNC(=N)N)NC(=O)[C@H](CCS)NC(=O)[C@H](Cc2ccccc2)NC(=O)[C@H]([C@@H](C)CC)NC1=O, also called Cyclo-hCRLIIF; cyclic peptide #13d) [cyclo-hcys arg leu ile ile phe]", "pKd": 4.36}
